target: HLA-A*01:01; test: IEDB peptide-MHC binding, purified MHC/competitive/fluorescence; filed as Kd, often an IC50 or EC50 that approximates it; bounds were set here for any values at or beyond the usual limits of such assays; details: source organism: Homo sapiens
Readout type: Kd

Request: Any idea what its Kd is? The sequence is `CSDSDGLAP`
Result: ≥ 20 µM

----------
Can you tell me Kd for the items I'm about to list?
biological target: HLA-A*33:01; assay: IEDB peptide-MHC binding, purified MHC/competitive/radioactivity; filed as Kd, often an IC50 or EC50 that approximates it; bounds were set here for any values at or beyond the usual limits of such assays; details: source organism: SARS coronavirus Tor2
Numbers only, in nM.

# count of solved cases: 4
>>> experimental_value("TMHANYIFWR")
121
>>> experimental_value("VLAYMLFTK")
1890
>>> experimental_value("SMMGFKMNY")
775
>>> experimental_value("NVYADSFVVK")
972

Your task in this section: give Kd for each listed record.
1. IVFVCVEYY
2. KMQRMLLEK

Result:
1: 844; 2: 13700
